These data points were gathered from ChEMBL document CHEMBL1201862.

List of GI50 values.
Tested on: M14
Experiment: NCI tumour cell line growth inhibition, 48 h
The source made the active and inactive calls. No stated cut-off is given here; in the data, active = GI50 up to about 1.1 µM and inactive = higher.

# Compound, GI50
records = [
    ("COc1ccc(N2C(=O)C3c4[nH]c5cccc(C)c5c4C4CCC(C(C)(C)C)CC4C3C2=O)cc1 (stereo not given)", "> 10 µM (inactive)"),
    ("CCCCNC(=S)Nc1nc(C(=O)NNS(=O)(=O)c2ccccc2)cs1", "40.1 µM (inactive)"),
    ("C=CCc1cccc2cc(C(=O)NC3CCCCC3)c(=N)oc12", "18 µM (inactive)"),
    ("Cc1nc(-n2nc(-c3ccccc3)cc2-c2ccccc2)sc1C(=O)/C=C/c1ccc([N+](=O)[O-])cc1", "27.6 µM (inactive)"),
    ("CCOC(=O)CSc1nnc(CSc2nc(-c3ccccc3)c(-c3ccccc3)[nH]2)n1-c1ccccc1", "> 45 µM (inactive)"),
]

----------
Test system: SNB-19
Assay: NCI tumour cell line growth inhibition, 48 h
Activity calls are given as the source filed them. Cut-off read from the data, not from the text of the source: active = GI50 up to about 1.1 µM and inactive = higher.

# Compound, GI50
records = [
    ("Nc1ccc(S(=O)(=O)c2ccc(/N=[N+](\\[O-])c3ccc(S(=O)(=O)c4ccc(N)cc4)cc3)cc2)cc1", "44.4 µM (inactive)"),
    ("CC(C)=CCNc1ncnc2[nH]cnc12", "> 100 µM (inactive)"),
    ("COC(=O)NC1C(C)OC(OC2C/C=C(/C)C3C=CC4C(OC5CC(OC6CC(O)C(OC7CC(O)C(OC)C(C)O7)C(C)O6)C(O)C(C)O5)C(C)CC(C)C4C3(C)C(=O)C3=C(O)C4(CC(C)C(CO)=CC4/C=C\\2C)OC3=O)CC1(C)[N+](=O)[O-] (stereo not drawn)", "19.1 µM (inactive)"),
    ("COc1cc2c(cc1OCCCCOc1cc3nc(C)nc(Cl)c3cc1OC)N=C[C@@H]1CCCN1C2=O", "17.4 µM (inactive)"),
    ("NC(=O)OCC(COc1ccc(Cl)cc1)OC(=O)c1ccccc1Cl (stereo not drawn)", "28.1 µM (inactive)"),
    ("Cc1[nH]c2[nH]c(=S)nc(NC(N)=S)c2c1Cc1ccccc1", "97.9 µM (inactive)"),
    ("C=C(C)C1Cc2c(cc(O)c3c(=O)c4c(oc23)C(O)Oc2cc(OC)c(OC)cc2-4)O1 (stereo not drawn)", "> 10 µM (inactive)"),
    ("Cc1nc(-n2nc(-c3ccccc3)cc2-c2ccccc2)sc1C(=O)/C=C/c1ccc([N+](=O)[O-])cc1", "24.2 µM (inactive)"),
]

----------
Tested on: NCI-H522
Assay: NCI tumour cell line growth inhibition, 48 h
Calls of active or inactive are those of the source. Rule as the data show it: active = GI50 up to about 1.1 µM and inactive = higher.
Outcomes: active, inactive

# Compound, Category
rows = [
    ("CCCC(C)C[C@@H](C)CC(C)/C=C(\\C)c1oc(=O)c(C)c(O)c1C.CC[C@@H](C)C[C@@H](C)C[C@@H](C)/C=C(\\C)c1oc(=O)c(C)c(O)c1C (some centres undefined)", "inactive"),
    ("CCOC(=O)CSc1nnc(CSc2nc(-c3ccccc3)c(-c3ccccc3)[nH]2)n1-c1ccccc1", "inactive"),
    ("COc1cc(/C=C2/SC(c3ccccc3)N(c3cccc(NC(C)=O)c3)C2=O)cc(OC)c1OC (centres undefined)", "inactive"),
    ("CCN(CCCl)c1cc(CN(C)C)cc(NC(=O)c2ccc(C(=O)Nc3cc(CN(C)C)cc(N(CC)CCCl)c3)cc2)c1", "active"),
    ("Cc1ccc(NC(=O)c2cc(S(=O)(=O)Nc3nc4cccnc4[nH]3)c(SSc3cc(Cl)c(C(=O)Nc4ccc(C)cc4)cc3S(=O)(=O)Nc3nc4cccnc4[nH]3)cc2Cl)cc1", "inactive"),
    ("COC1=C(C)C(=O)C2C(C1=O)C(c1ccc(OC)c(OC)c1)[C@H]2C (some centres undefined)", "inactive"),
    ("COc1cc(C2S/C(=C/c3ccccc3)C(=O)N2c2ccc(NC(C)=O)cc2)cc(OC)c1OC (centres undefined)", "inactive"),
    ("CC(=O)Nc1ccc(-c2nc3cc(Cl)ccc3o2)cc1", "inactive"),
    ("CCN(CCO)CC1CCCC2CCCCC21 (centres undefined)", "inactive"),
    ("S=P1(Sc2ccccc2)Oc2ccc3ccccc3c2-c2c(ccc3ccccc23)O1", "inactive"),
    ("CC1=C(/C=C/C(=O)O)C(C)(C)CCC1", "inactive"),
    ("O=c1oc2c(O)c(O)cc3c(=O)oc4c(O)c(O)cc1c4c23", "inactive"),
    ("C/C(=N\\N)C(CN1CCOCC1)C(c1ccccc1)c1c(O)c2ccccc2oc1=O (centres undefined)", "inactive"),
    ("CCOC(=O)c1c(N)n(-c2ccccc2)c(=O)n(-c2ccccc2)c1=O", "inactive"),
    ("CC(=O)OCCCCN1C(=O)CSc2ccccc21", "inactive"),
    ("COc1ccc(/C=C2/C(C)=NN(c3cccc(Cl)c3)/C2=N/c2nc3ccccc3s2)cc1", "inactive"),
    ("COc1cccc2c1C(=O)c1c(O)c3c(c(O)c1C2=O)CC(O)(C(=O)CO)CC3OC1CC(N2CCOCC2C#N)C(O)C(C)O1 (centres undefined)", "active"),
    ("CN1CCc2[nH]nc(-c3n[nH]c4c3CN(C)CC4)c2C1", "inactive"),
    ("CC(C)(C)OC(=O)[C@@H]1CCC(=O)N1C1(c2ccccc2)c2ccccc2-c2ccccc21", "inactive"),
]
